assay info: Pharmacokinetic test in SD rats, intragastric 50 mg/kg of salts and crystalline forms
Type: in vivo
conditions used: male, SD, rat, plasma, po, 50 mg/kg, 50 mg/kg (in free base), read-out: MRT(0-t)
readout kind: MRT last (h)
Numbers only, in h.

**Q:** Record request: MRT last value, item CC(C)(C)ONc1nc(Nc2ccnc(C(F)(F)F)c2)nc(-c2cccc(C(F)(F)F)n2)n1.CS(=O)(=O)O
**A:** 16.5

###

experimental target: IDH2 (R172K, 40-end) (Homo sapiens, UniProt P48735, R172K)
Sequence (P48735 40-452 R172K): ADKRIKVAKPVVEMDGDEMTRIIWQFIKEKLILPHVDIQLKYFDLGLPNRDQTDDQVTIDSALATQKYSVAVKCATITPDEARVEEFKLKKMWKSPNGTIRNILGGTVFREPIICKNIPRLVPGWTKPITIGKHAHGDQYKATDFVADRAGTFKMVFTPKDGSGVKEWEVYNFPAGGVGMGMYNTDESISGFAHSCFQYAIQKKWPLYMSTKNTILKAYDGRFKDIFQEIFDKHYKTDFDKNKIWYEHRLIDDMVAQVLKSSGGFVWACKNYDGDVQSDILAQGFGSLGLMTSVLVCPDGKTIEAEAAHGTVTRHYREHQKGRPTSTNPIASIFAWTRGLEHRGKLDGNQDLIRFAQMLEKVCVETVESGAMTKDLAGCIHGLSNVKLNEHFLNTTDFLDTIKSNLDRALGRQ
assay info: Inhibitory activity test against IDH2 (NADPH decrease, diaphorase/resazurin fluorescence)
Assay type: biochemical
conditions used: IDH2 (R172K, 40-end), 80 nM enzyme, 40 μM NADPH; read-out: IC50
readout kind: IC50

**Q:** Record request: IC50 value, item CC(C)(C)ONc1nc(Nc2ccnc(C(F)(F)F)c2)nc(-c2cccc(C(F)(F)F)n2)n1
**A:** 32 nM

###

assay info: Stability test of various salts, high temperature and high humidity (Chinese Pharmacopoeia 2010, Part II, Appendix XIX C)
Type: physicochemical
conditions used: before high temperature and high humidity test
Description: The stability of the various acid addition salts of the compound of Formula I were tested according to the method described in the Chinese Pharmacopoeia, 2010 edition, Part II, Appendix XIX C.
readout kind: Purity before test (%)
Give bare numbers, in %.

Example entries begin here.
CC(C)(C)ONc1nc(Nc2ccnc(C(F)(F)F)c2)nc(-c2cccc(C(F)(F)F)n2)n1.Cc1ccc(S(=O)(=O)O)cc1 [The p-toluenesulfonate (Example 9)]	98.79
CC(C)(C)ONc1nc(Nc2ccnc(C(F)(F)F)c2)nc(-c2cccc(C(F)(F)F)n2)n1.Cl [The hydrochloride salt (Example 7)]	98.85
CC(C)(C)ONc1nc(Nc2ccnc(C(F)(F)F)c2)nc(-c2cccc(C(F)(F)F)n2)n1.O=S(=O)(O)O [The sulfate (Example 8)]	99.30

Moving on to another compound below.
**Q:** Record request: Purity before test value, item CC(C)(C)ONc1nc(Nc2ccnc(C(F)(F)F)c2)nc(-c2cccc(C(F)(F)F)n2)n1.CS(=O)(=O)O
**A:** 98.82

###

assay info: Hygroscopicity test of various salts (Chinese Pharmacopoeia 2010, Part II, Appendix XIX J)
Assay type: physicochemical
conditions used: HR = 80% ± 2
readout kind: Increased Weights by Hygroscopy (%)
Answers are plain numbers, in %.

Example entries begin here.
CC(C)(C)ONc1nc(Nc2ccnc(C(F)(F)F)c2)nc(-c2cccc(C(F)(F)F)n2)n1.Cc1ccc(S(=O)(=O)O)cc1 [The p-toluenesulfonate (Example 9)]	0.7
CC(C)(C)ONc1nc(Nc2ccnc(C(F)(F)F)c2)nc(-c2cccc(C(F)(F)F)n2)n1.Cl [The hydrochloride salt (Example 7)]	0.9
CC(C)(C)ONc1nc(Nc2ccnc(C(F)(F)F)c2)nc(-c2cccc(C(F)(F)F)n2)n1.O=S(=O)(O)O [The sulfate (Example 8)]	1.3
CC(C)(C)ONc1nc(Nc2ccnc(C(F)(F)F)c2)nc(-c2cccc(C(F)(F)F)n2)n1.O=C(O)/C=C\C(=O)O [Maleate (Example 10)]	2.2

**Q:** Record request: Increased Weights by Hygroscopy value, item CC(C)(C)ONc1nc(Nc2ccnc(C(F)(F)F)c2)nc(-c2cccc(C(F)(F)F)n2)n1.CS(=O)(=O)O
**A:** 1.0
